target: T1, cynomolgus TIGIT expressed on CHO-K1 cells (cynomolgus, UniProt A0A7N9I9V4 89-312); assay: flow cytometry on CHO-K1 cells expressing cynomolgus TIGIT
T1 construct: whole, on cells; also called cynomolgus TIGIT over-expressing cell line
T1 sequence (A0A7N9I9V4 entry or part of it): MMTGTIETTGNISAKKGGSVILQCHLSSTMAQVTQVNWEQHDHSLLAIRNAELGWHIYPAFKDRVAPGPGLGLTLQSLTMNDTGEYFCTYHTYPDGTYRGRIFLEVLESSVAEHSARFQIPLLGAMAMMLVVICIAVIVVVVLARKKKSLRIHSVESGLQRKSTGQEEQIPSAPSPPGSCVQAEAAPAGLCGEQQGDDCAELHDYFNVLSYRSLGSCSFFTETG
This section presents binders with their documented EC50 values.

Use these answered entries as a reference point.
binder	EC50
TIGIT-87 chimeric antibody (antibody, human IgG1, kappa, V domains shown, Full-length chimeric IgG1 kappa) VH: EVKLVESGPELVKPGASMKISCKASGYSFTGYTMNWVKQSHGKNLEWIGLINPYNGGTSYNQKFKGKATLTVDKSSSTAYMELLSLTSEDSAVYYCARYANRFENWFAYWGQGTLVTVSS VL: DIQMTQSPASLSASVGETVTITCRASENIYSYLAWYQQKQGKSPQLLVYNAKTLAEGVPSRFSGSGSGTQFSLKINSLQPEDFGSYYCQHHYGTPWTFGGGTKLEIKR	0.81 nM
TIGIT-6 chimeric antibody (antibody, human IgG1, kappa, V domains shown, also called 6VH + 6VL) VH: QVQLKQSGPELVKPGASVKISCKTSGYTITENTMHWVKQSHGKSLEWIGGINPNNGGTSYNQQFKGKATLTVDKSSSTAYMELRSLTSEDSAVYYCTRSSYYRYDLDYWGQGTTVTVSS VL: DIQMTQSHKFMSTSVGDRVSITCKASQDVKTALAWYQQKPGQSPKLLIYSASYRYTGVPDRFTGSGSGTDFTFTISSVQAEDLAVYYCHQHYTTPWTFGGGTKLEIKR	2.64 nM
TIGIT-15 chimeric antibody (antibody, human IgG1, kappa, V domains shown, Full-length chimeric IgG1 kappa) VH: DVQLVESGGGLVQPGGSLKLSCAASGFTFSSYGMSWVRQTPDRRLELVATINNNGGSTYYPDSVKGRFTISRDNARNTLYLQMSSLKSEDTAMYYCATRTGTEILGFDFWGQGTTLTVSS VL: DIVLTQSHKFMSTSLGDRVSITCKASQDVSTAVAWYQQKPGQSPKLLIYWASSRHTGVPDRFTGSRSGPDYTLTISSVQAEDLALYYCQQQYSTPWTFGGGTKLEIKR	3.53 nM
TIGIT-19 chimeric antibody (antibody, human IgG1, kappa, V domains shown, also called 19VH + 19VL) VH: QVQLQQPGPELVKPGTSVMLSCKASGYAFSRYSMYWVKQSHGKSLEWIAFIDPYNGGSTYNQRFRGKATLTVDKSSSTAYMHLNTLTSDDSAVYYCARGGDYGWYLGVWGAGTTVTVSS VL: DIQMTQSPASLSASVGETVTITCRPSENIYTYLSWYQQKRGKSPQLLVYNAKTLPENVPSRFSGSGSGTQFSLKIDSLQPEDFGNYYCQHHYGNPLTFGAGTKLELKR	1.05 nM

# evaluate next
Query :: Report measured EC50; entry is TIGIT-18 chimeric antibody (antibody, human IgG1, kappa, V domains shown, Full-length chimeric IgG1 kappa) VH: QVQLQQPGAELVRPGASVKLSCKASGYSFTSYWMNWVKQRPGQGHEWIGMIHLSNSETRLNQNFLDKATLTVDKSSSTVYLQLSSPTSEDSAVYYCARERDYYGSSYFDYWGQGTTLTVSS VL: DIVMTQSPASLVVSLGQRATISCRTSQSVSTSSYSYMHWYQQKPGQPPKLLIKNASNLESGVPARFSASGSGTDFTLNIHPVEEEDAATYYCQHSWEIPRTFGGGTKLEIKR
Result :: 1.45 nM
